# pIC50 listing for each entry below
Test system: Ub-PCNA levels in the nucleus of ES2 cells (USP1 activity)
Run Description: ES2 Ub-PCNA immunofluorescence (IF) assay
Type: cell-based
Condition Details: Homo sapiens, ES-2; ES2 cells, 3 hours, Ub-PCNA immunofluorescence; read-out: USP1 IC50 (Ub-PCNA)
pIC50: −log10 of the molar value.

Consider the worked cases shown below.
{"Molecule": "CCn1cc(C(F)(F)F)nc1-c1ccc(N[C@@H]2CCCn3nc(-c4c(OC)ncnc4C4CC4)cc32)cc1 (single isomer, unassigned)", "Value Reported": "6.30 to 7.00"}
{"Molecule": "CCn1cc(C(F)(F)F)nc1-c1ccc([C@H](C)N2C(=O)CCn3nc(-c4c(OC)ncnc4C4CC4)nc32)cc1", "Value Reported": "> 7.00"}
{"Molecule": "CCn1cc(C(F)(F)F)nc1-c1ccc(CN2C(=O)CCn3nc(-c4c(Cl)cnn4C(C)C)cc32)cn1", "Value Reported": "6.30 to 7.00"}
{"Molecule": "CCn1cc(C(F)(F)F)nc1-c1ccc(CN2CC(C)(C)Cn3nc(-c4c(OC)ncnc4C4CC4)cc32)cc1F", "Value Reported": "> 7.00"}

Lab note: CC(C)n1ncc(Cl)c1-c1nc2n(n1)CCC(=O)N2Cc1ccc(-c2nc(C(F)(F)F)cn2C)cc1 gave pIC50 of > 7.00

According to the records, this molecule CCn1cc(C(F)(F)F)nc1-c1ccc(CN2C(=O)CCn3nc(-c4c(OC)ncnc4C4CC4)nc32)cc1 displays pIC50 of > 7.00

Lab note: measured pIC50 of CCn1cc(C(F)(F)F)nc1-c1ccc(CN2C(=O)C(C)Cn3nc(-c4c(OC(F)F)ncnc4C4CC4)nc32)cc1F (centres unmarked) was > 7.00

# pIC50 (molecule: CCn1cc(C(F)(F)F)nc1-c1c(Cl)cc(CN2C(=O)CCn3nc(-c4c(OC)ncnc4C4CC4)cc32)cc1OC ) is > 7.00

For record CCn1cc(C(F)(F)F)nc1-c1ccc([C@H](C)N2C(=O)CCn3nc(-c4c(OC)ncnc4C4CC4)nc32)cc1F the listed pIC50 is > 7.00

----------
Run Description: Liver microsomal metabolic stability, rat liver microsomes (RLM)
Condition Details: rat, liver microsomes, t1/2 (min) in RLM, 1 μM compound, 1 mg/mL microsomes, NADPH
Recorded measurements of half-life at 1 μM, one per entry

Reference set (3 entries):
{"Compound": "COc1ncnc(C2CC2)c1-c1cc2n(n1)CCCN2Cc1ccc(-c2nc(C(F)(F)F)cn2C)cc1 [Example 24]", "half-life at 1 μM": "< 25 min"}
{"Compound": "COc1ncnc(C2CC2)c1-c1cc2n(n1)C(C)CCN2Cc1ccc(-c2nc(C(F)(F)F)cn2C)cc1 (racemic) [Example 51]", "half-life at 1 μM": "< 25 min"}
{"Compound": "CCn1cc(C(F)(F)F)nc1-c1ccc(CN2C(=O)CCn3nc(-c4c(Cl)cnn4C(C)C)cc32)cc1 [Example 97]", "half-life at 1 μM": "> 25 min"}

half-life at 1 μM measured on CC(C)n1cc(C(F)(F)F)nc1-c1ccc([C@H](C)N2C(=O)CCn3nc(-c4c(Cl)cnn4C(C)C)nc32)cc1 [Example 177] = > 25 min

Record COc1ncnc(C2CC2)c1-c1nc2n(n1)CCC(=O)N2[C@H](C)c1ccc(-c2nc(C(F)(F)F)cn2C)c(F)c1 [Example 197] , field half-life at 1 μM: > 25 min

Quick note, half-life at 1 μM for COc1ncnc(C2CC2)c1-c1nc2n(n1)CCC(=O)N2Cc1ccc(-c2nc(C(F)(F)F)cn2C)c(F)c1 [Example 170] landed at > 25 min

# half-life at 1 μM (compound: COc1ncnc(C2CC2)c1-c1nc2n(n1)CCC(=O)N2[C@@H](C)c1ccc(-c2nc(C(F)(F)F)cn2C(C)C)c(F)c1 [Example 173] ) is > 25 min

// field: half-life at 1 μM; key: COc1ncnc(C2CC2)c1-c1cc2n(n1)CCC(=O)N2Cc1ccc(-n2nc(C(F)(F)F)cc2C)c(F)c1 [Example 103] ; value = > 25 min

Entry COc1ncnc(C2CC2)c1-c1cc2n(n1)CCC(=O)N2Cc1ccc(-n2nc(C(F)(F)F)cc2C)cc1 [Example 4] ; half-life at 1 μM = > 25 min

The measured half-life at 1 μM associated with CCn1cc(C(F)(F)F)nc1-c1c(F)cc(CN2C(=O)CCn3nc(-c4c(OC)ncnc4C4CC4)cc32)cc1OC [Example 140] reads > 25 min

----------
Run Description: Liver microsomal metabolic stability, rat liver microsomes (RLM)
Condition Details: rat, liver microsomes, t1/2 (min) in RLM, 1 μM compound, 1 mg/mL microsomes, NADPH
Endpoint: half-life at 1 μM

# annotated cases, reported half-life at 1 μM shown
{"Compound": "CCn1cc(C(F)(F)F)nc1-c1ccc(OC2CCCn3nc(-c4c(Cl)cnn4C(C)C)cc32)cc1F (centres unmarked)", "half-life at 1 μM": "> 25 min"}
{"Compound": "COc1cc(C(F)(F)F)nn1-c1ccc(CN2C(=O)CCn3nc(-c4c(Cl)cnn4C(C)C)cc32)cc1", "half-life at 1 μM": "> 25 min"}

Record CCn1cc(C(F)(F)F)nc1-c1ccc(OC2CCCCn3nc(-c4c(Cl)cnn4C(C)C)cc32)cc1 (centres unmarked) , field half-life at 1 μM: < 25 min

Note to self: half-life at 1 μM recorded for CCn1cc(C(F)(F)F)nc1-c1ccc(CN2C(=O)CCn3nc(-c4c(Cl)cnn4C(C)C)nc32)cn1 was > 25 min

Form field half-life at 1 μM, entry COc1cc(CN2C(=O)CCn3nc(-c4c(OC)ncnc4C4CC4)nc32)ccc1-c1nc(C(F)(F)F)cn1C(C)C : > 25 min

Quick note, half-life at 1 μM for CCn1cc(C(F)(F)F)nc1-c1ccc(N[C@@H]2CCCn3nc(-c4c(Cl)cnn4[C@H](C)CF)cc32)cc1 (single isomer, unassigned) landed at > 25 min

Measured half-life at 1 μM, COc1ncnc(C2CC2)c1-c1nc2n(Cc3ccc(-c4nc(C(F)(F)F)cn4C(C)C)c(F)c3OC)c(=O)ccn2n1 : > 25 min

Value of half-life at 1 μM reported for the compound CCn1cc(C(F)(F)F)nc1-c1ccc(NC2CCCc3nn(-c4ccccc4C(C)C)cc32)cc1F (centres unmarked) is < 25 min

Item: CCn1cc(C(F)(F)F)nc1-c1ccc([C@H](C)N2C(=O)CCn3nc(-c4c(C#N)cnn4C(C)C)cc32)cc1F (single isomer, unassigned) | half-life at 1 μM: > 25 min

Per the record, CC(C)n1cc(C(F)(F)F)nc1-c1ccc(CN2C(=O)CCn3nc(-c4c(Cl)cnn4C(C)C)nc32)cc1F has half-life at 1 μM of > 25 min

# half-life at 1 μM of CC(C)n1cc(C(F)(F)F)nc1-c1ccc(CN2C(=O)CCn3nc(-c4c(Cl)cnn4C(C)C)cc32)cc1 = > 25 min

half-life at 1 μM in this record for COc1cc([C@@H](C)N2C(=O)CCn3nc(-c4c(OC)ncnc4C4CC4)cc32)ccc1-c1nc(C(F)(F)F)cn1C(C)C : < 25 min

// half-life at 1 μM value for CCn1cc(C(F)(F)F)nc1-c1ccc([C@H](C)N2C(=O)CCn3nc(-c4c(Cl)cnn4C(C)C)nc32)cc1OC : < 25 min

Recorded result, CCn1cc(C(F)(F)F)nc1-c1ccc(CN2C(=O)CCn3nc(-c4c(Cl)cnn4C4COC4)cc32)cc1 , half-life at 1 μM: > 25 min

----------
Run Description: ADME solubility determination in PBS at pH 2.0 and pH 7.4
Format: physicochemical
Condition Details: phosphate buffered saline, 25 °C, pH 2, aqueous buffer, thermodynamic from solid, PBS pH 2.0, 25° C., read-out: Solubility at pH 2.0
Endpoint: solubility at 24 h

Use these answered entries as a reference point.
{"Compound": "COc1ncnc(C2CC2)c1-c1cc2n(n1)CCC(=O)N2Cc1ccc(-n2nc(C(F)(F)F)cc2C)cc1", "Value Reported": "< 10 µM"}
{"Compound": "CCn1cc(C(F)(F)F)nc1-c1ccc([C@@H](C)N2C(=O)CCn3nc(-c4c(Cl)cnn4C(C)C)cc32)cn1", "Value Reported": "< 10 µM"}
{"Compound": "CCn1cc(C(F)(F)F)nc1-c1ccc([C@H](C)N2C(=O)CCn3nc(-c4c(OC)ncnc4C4CC4)nc32)cc1", "Value Reported": "≥ 10 µM"}
{"Compound": "CCn1cc(C(F)(F)F)nc1-c1ccc(N[C@@H]2CCCn3nc(-c4c(Cl)cnn4[C@H](C)CF)cc32)cc1 (single isomer, unassigned)", "Value Reported": "< 10 µM"}
{"Compound": "CCn1cc(C(F)(F)F)nc1-c1ccc(CN2CC(N)Cn3nc(-c4c(Cl)cnn4C(C)C)cc32)cc1F (centres unmarked)", "Value Reported": "≥ 10 µM"}
{"Compound": "CC(C)n1cc([N+](=O)[O-])nc1-c1ccc(CN2C(=O)CCn3nc(-c4c(Cl)cnn4C(C)C)cc32)cc1", "Value Reported": "< 10 µM"}
{"Compound": "CCn1cc(C(F)(F)F)nc1-c1ccc(CN2C(=O)CCn3nc(-c4c(OC)ncnc4C4CC4)nc32)cc1", "Value Reported": "≥ 10 µM"}
{"Compound": "CC(C)n1cc(C(F)(F)F)nc1-c1ccc(CN2C(=O)CCn3nc(-c4c(Cl)cnn4C(C)C)cc32)cc1F", "Value Reported": "< 10 µM"}

Measured solubility at 24 h of COc1ccnc(C(C)C)c1-c1cc2n(n1)CCC(=O)N2Cc1ccc(-c2nc(C(F)(F)F)cn2C)cc1 : ≥ 10 µM

Short answer for Cc1cnn(C(C)C)c1-c1cc2n(n1)CCC(=O)N2Cc1ccc(-c2nc(C(F)(F)F)nn2C)cc1 : solubility at 24 h was ≥ 10 µM

Form field solubility at 24 h, entry CCn1cc(C(F)(F)F)nc1-c1ccc(CN2C(=O)CCn3nc(-c4c(OC)ncnc4C4CC4)cc32)cc1F : < 10 µM

Consider CCn1cc(C(F)(F)F)nc1-c1c(F)cc(CN2C(=O)CCn3nc(-c4c(Cl)cnn4C(C)C)cc32)cc1OC . Its measured solubility at 24 h is < 10 µM

Field solubility at 24 h (entry CC(C)n1ncc(Cl)c1-c1nc2n(n1)CCC(=O)N2Cc1ccc(-c2nc(C(F)(F)F)cn2C)cc1 ) reads < 10 µM

Noted for CCn1cc(C(F)(F)F)nc1-c1ccc([C@H](C)N2C(=O)CCn3nc(-c4c(OC)ncnc4C4CC4)cc32)cc1F : its solubility at 24 h reads ≥ 10 µM

Every entry's value here was drawn from patent US20230219965A1.
